Value source: patent US20250051327A1

// values below are reported IC50
Biological target: Recombinant human MALT-1 (amino acids 340-824) (Homo sapiens (Human), UniProt Q9UDY8)
Sequence (Q9UDY8 340-824): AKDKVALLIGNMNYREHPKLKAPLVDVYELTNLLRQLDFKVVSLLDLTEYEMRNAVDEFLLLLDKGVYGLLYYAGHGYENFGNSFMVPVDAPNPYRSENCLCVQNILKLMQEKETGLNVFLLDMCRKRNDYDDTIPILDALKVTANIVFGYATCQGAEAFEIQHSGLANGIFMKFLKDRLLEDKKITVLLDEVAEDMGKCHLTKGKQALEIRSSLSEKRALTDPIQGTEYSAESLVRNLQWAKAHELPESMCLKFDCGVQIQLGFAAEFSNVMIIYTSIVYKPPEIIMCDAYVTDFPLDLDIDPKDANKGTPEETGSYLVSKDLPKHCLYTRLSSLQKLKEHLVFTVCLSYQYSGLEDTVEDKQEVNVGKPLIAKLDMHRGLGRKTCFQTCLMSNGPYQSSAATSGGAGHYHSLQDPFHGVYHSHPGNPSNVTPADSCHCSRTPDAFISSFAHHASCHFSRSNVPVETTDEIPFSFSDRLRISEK
Assay: MALT-1 inhibition assay (fluorogenic substrate Ac-LRSR-Rh110-DP)
Conditions: recombinant human MALT-1, substrate Ac-LRSR-Rh110-DP
reported-metric: IC50 (nM)

>  <compound>
CN(C(=O)[C@H]1CC(=O)N1)[C@@H](c1ccc(N2CCCc3c2cnc2cc(Cl)nn32)cc1)C(F)(F)F [CPD0075869]

>  <reported-metric>
IC50

>  <recorded-result>
75

$$$$
>  <compound>
CN(C(=O)[C@@H]1CCC(=O)NC1)[C@@H](c1ccc(N2CCCc3c2cnc2cc(Cl)nn32)cc1)C(F)(F)F (relative stereo) [CPD0073568]

>  <reported-metric>
IC50

>  <recorded-result>
38

$$$$
>  <compound>
COc1ccc2ncc(Nc3ccc([C@H](N(C)C(=O)[C@H]4CCN(C(=O)CO)C4)C(F)(F)F)cc3)c([C@H](C)OC)c2n1 (relative stereo) [CPD0075882]

>  <reported-metric>
IC50

>  <recorded-result>
64

$$$$
>  <compound>
CN(C(=O)C1CC(C(=O)O)C1)[C@@H](c1ccc(N2CCCc3c2cnc2cc(Cl)nn32)cc1)C(F)(F)F (some centres unmarked) [CPD0072461]

>  <reported-metric>
IC50

>  <recorded-result>
63

$$$$
>  <compound>
CC(=O)N1CCC[C@H](C(=O)N(C)[C@@H](c2ccc(N3CCCc4c3cnc3cc(Cl)nn43)cc2)C(F)(F)F)C1 (relative stereo) [CPD0073500]

>  <reported-metric>
IC50

>  <recorded-result>
167

$$$$
>  <compound>
CN(C(=O)C1CCN(C(=O)CO)CC1)[C@@H](c1ccc(N2CCCc3c2cnc2cc(Cl)nn32)cc1)C(F)(F)F [CPD0073091]

>  <reported-metric>
IC50

>  <recorded-result>
59

$$$$
>  <compound>
CN1C(=O)OC[C@@H]1C(=O)N(C)[C@@H](c1ccc(N2CCCc3c2cnc2cc(Cl)nn32)cc1)C(F)(F)F (relative stereo) [CPD0073570]

>  <reported-metric>
IC50

>  <recorded-result>
62

$$$$
>  <compound>
COCC(=O)N1CC[C@@H](C(=O)N(C)[C@@H](c2ccc(N3CCCc4c3cnc3cc(Cl)nn43)cc2)C(F)(F)F)C1 (relative stereo) [CPD0075875]

>  <reported-metric>
IC50

>  <recorded-result>
85

$$$$
>  <compound>
CO[C@@H](C)c1c(Nc2ccc([C@H](N(C)C(=O)C3CCN(C(=O)CO)CC3)C(F)(F)F)cc2)cnn2cc(Cl)nc12 [CPD0084141]

>  <reported-metric>
IC50

>  <recorded-result>
43

$$$$
>  <compound>
CO[C@@H](C)c1c(Nc2ccc(C(N(C)C(=O)C3CCS(=O)(=O)CC3)C(F)(F)F)cc2)cnn2cc(Cl)nc12 (some centres unmarked) [CPD0072849]

>  <reported-metric>
IC50

>  <recorded-result>
37

$$$$
>  <compound>
CN1C[C@@H](C(=O)N(C)[C@@H](c2ccc(N3CCCc4c3cnc3cc(Cl)nn43)cc2)C(F)(F)F)NC1=O (relative stereo) [CPD0075574]

>  <reported-metric>
IC50

>  <recorded-result>
80

$$$$
>  <compound>
CN(C(=O)C1CC(O)C1)[C@@H](c1ccc(N2CCCc3c2cnc2cc(Cl)nn32)cc1)C(F)(F)F (some centres unmarked) [CPD0021565]

>  <reported-metric>
IC50

>  <recorded-result>
84

$$$$
>  <compound>
CN(C(=O)C1CCCO1)[C@@H](c1ccc(N2CCCc3c2cnc2cc(Cl)nn32)cc1)C(F)(F)F (some centres unmarked) [CPD0021570]

>  <reported-metric>
IC50

>  <recorded-result>
147

$$$$
>  <compound>
CSc1cc2ncc3c(n2n1)CCCN3c1ccc([C@H](N(C)C(=O)C2CCS(=O)(=O)CC2)C(F)(F)F)cc1 [CPD0021815]

>  <reported-metric>
IC50

>  <recorded-result>
332

$$$$
>  <compound>
C[C@@H]1CCc2c(cnc3cc(Cl)nn23)N1c1ccc([C@H](N(C)C(=O)[C@H]2CC[S@@](=N)(=O)CC2)C(F)(F)F)cc1 (relative stereo) [CPD0074552]

>  <reported-metric>
IC50

>  <recorded-result>
78

$$$$
>  <compound>
CC(C)C(=O)N(C)[C@@H](c1ccc(N2CCCc3c2cnc2cc(Cl)nn32)cc1)C(F)(F)F [CPD0019340]

>  <reported-metric>
IC50

>  <recorded-result>
130

$$$$
>  <compound>
CN(C(=O)[C@H]1CC[C@H](C(=O)O)CC1)[C@@H](c1ccc(N2CCCc3c2cnc2cc(Cl)nn32)cc1)C(F)(F)F [CPD0072442]

>  <reported-metric>
IC50

>  <recorded-result>
43

$$$$
>  <compound>
COc1ccc2ncc(Nc3ccc([C@H](N(C)C(=O)C4CCS(=O)(=O)CC4)C(F)(F)F)cc3)c(COC3CC3)c2n1 [CPD0074048]

>  <reported-metric>
IC50

>  <recorded-result>
163

$$$$
>  <compound>
CN(C(=O)C1CCS(=N)(=O)CC1)[C@@H](c1ccc(N2CCCc3c2cnc2cc(Cl)nn32)cc1)C(F)(F)F (some centres unmarked) [CPD0021810]

>  <reported-metric>
IC50

>  <recorded-result>
63

$$$$
>  <compound>
COC(C)c1c(Nc2ccc([C@H](N(C)C(=O)C3CCS(=O)(=O)CC3)C(F)(F)F)cn2)cnc2ccc(Cl)nc12 (some centres unmarked) [CPD0019499]

>  <reported-metric>
IC50

>  <recorded-result>
80

$$$$
>  <compound>
CN(C(=O)[C@H]1CCCS(=O)(=O)C1)[C@@H](c1ccc(N2CCCc3c2cnc2cc(Cl)nn32)cc1)C(F)(F)F [CPD0021809]

>  <reported-metric>
IC50

>  <recorded-result>
154

$$$$
>  <compound>
CN(C(=O)C1CCCOC1)[C@@H](c1ccc(N2CCCc3c2cnc2cc(Cl)nn32)cc1)C(F)(F)F (some centres unmarked) [CPD0021572]

>  <reported-metric>
IC50

>  <recorded-result>
166

$$$$
>  <compound>
CC(=O)N1CCC(C(=O)N(C)[C@@H](c2ccc(N3CCCc4c3cnc3cc(F)nn43)cc2)C(F)(F)F)CC1 [CPD0074050]

>  <reported-metric>
IC50

>  <recorded-result>
85

$$$$
